- System: rat abdominal aortic ring
- Assay details: Clonidine response on the abdominal aortic ring
- Setup conditions: Rattus norvegicus, ET-1 (4 nM) treated aorta; read-out: ED50 value, aortic ring contraction
pEC50: −log10 of the molar value.
Readout kind: pEC50

                              compound                     target  obs_value
0  Clc1cccc(Cl)c1NC1=NCCN1 [Clonidine]  rat abdominal aortic ring       5.74

These measurements were taken from patent US10828368B2.
